Recorded pIC50, one value per entry.
TARGET DESC: URAT1 (Homo sapiens)
Sequence (Q96S37 whole entry): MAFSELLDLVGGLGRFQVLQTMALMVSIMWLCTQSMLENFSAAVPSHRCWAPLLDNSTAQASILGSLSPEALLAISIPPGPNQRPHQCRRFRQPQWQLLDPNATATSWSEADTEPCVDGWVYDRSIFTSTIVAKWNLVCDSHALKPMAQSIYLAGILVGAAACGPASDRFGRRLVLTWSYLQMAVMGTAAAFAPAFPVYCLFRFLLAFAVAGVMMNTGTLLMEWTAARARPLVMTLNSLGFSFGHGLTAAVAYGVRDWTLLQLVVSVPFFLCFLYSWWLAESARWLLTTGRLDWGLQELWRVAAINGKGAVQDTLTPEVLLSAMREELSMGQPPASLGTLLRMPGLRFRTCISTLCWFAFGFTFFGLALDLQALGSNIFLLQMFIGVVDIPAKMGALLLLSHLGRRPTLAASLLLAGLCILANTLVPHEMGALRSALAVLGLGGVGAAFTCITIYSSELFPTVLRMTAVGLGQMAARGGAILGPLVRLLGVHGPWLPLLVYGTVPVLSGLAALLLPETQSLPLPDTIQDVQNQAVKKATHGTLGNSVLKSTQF
ASSAY COMMENT: Uric acid transport inhibitory test using human URAT1-expressing cells
Format: cell-based
Design: Human URAT1 full length cDNA was subcloned to expression vector pcDNA3.1; expressed in transfected cells; host or cells: HEK293 cells (pcDNA3.1, geneticin-selected)
EXPERIMENTAL PARAMETERS: human URAT1 expressing HEK293 cells, 14C-labeled uric acid uptake 5 min, room temperature; read-out: hURAT1 (IC50, concentration necessary for inhibiting the uric acid transport rate by 50%)
pIC50: −log10 of the molar value.

Some solved cases for reference:
COMPOUND | TARGET DESC | pIC50
CC1COc2ccccc2N1C(=O)c1cc(Cl)c(O)c(Cl)c1 (centres unmarked) | URAT1 (Homo sapiens) | 6.00 to 7.00
CS(=O)(=O)Nc1c(Cl)cc(C(=O)N2CCOc3ccccc32)cc1Cl | URAT1 (Homo sapiens) | 6.00 to 7.00
Nc1c(Cl)cc(C(=O)N2CCOc3ccccc32)cc1Cl | URAT1 (Homo sapiens) | 6.00 to 7.00
O=C(c1cc(Cl)c(O)c(Cl)c1)N1CC[S+]([O-])c2ccccc21 (centres unmarked) | URAT1 (Homo sapiens) | 5.52 to 6.00

Please look at the following compound next.
Q: Could you please provide reported pIC50 for CC1Cc2ccccc2N1C(=O)c1cc(Cl)c(O)c(Cl)c1 (centres unmarked) ? Thanks!
Result: 6.00 to 7.00

----------
These molecules were tested on CYP2C9 (Homo sapiens); IC50 is the recorded read-out.
ATTRIBUTE MEASURED: IC50 (µM)

MOL SMILES | IC50, µM
O=C(c1cc(Cl)c(O)c(Cl)c1)N1CCCc2ccccc21 | 13

[1] O=C(c1cc(Cl)c(O)c(Cl)c1)N1CCOc2ccc(S(=O)(=O)N3CCCC3)cc21
[2] O=C(c1cc(Cl)c(O)c(Cl)c1)N1CCOc2cccnc21
Q: Out of 1 and 2 , name the one with the higher IC50. Choose, then provide that item's label.
Result: 2
(2: 16 µM, 1: 4 µM)

----------
TARGET DESC: CYP2C9 (Homo sapiens, UniProt P11712)
Sequence (P11712 whole entry): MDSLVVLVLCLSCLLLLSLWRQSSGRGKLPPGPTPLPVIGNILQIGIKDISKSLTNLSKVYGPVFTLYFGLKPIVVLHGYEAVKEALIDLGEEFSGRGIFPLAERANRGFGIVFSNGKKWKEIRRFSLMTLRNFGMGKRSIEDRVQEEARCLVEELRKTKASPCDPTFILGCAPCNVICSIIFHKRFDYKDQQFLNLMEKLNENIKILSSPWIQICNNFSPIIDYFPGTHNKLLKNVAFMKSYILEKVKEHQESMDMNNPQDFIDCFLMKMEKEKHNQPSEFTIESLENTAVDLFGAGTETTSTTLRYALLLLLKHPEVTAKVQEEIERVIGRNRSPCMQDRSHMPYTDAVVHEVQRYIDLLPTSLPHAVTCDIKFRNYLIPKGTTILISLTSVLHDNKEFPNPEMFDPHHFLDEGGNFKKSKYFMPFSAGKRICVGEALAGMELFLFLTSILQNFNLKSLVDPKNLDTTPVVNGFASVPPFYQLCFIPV
ATTRIBUTE MEASURED: IC50 (µM)

COMPOUND | UNIT DESCRIPTOR | IC50
COc1ccc2c(c1)N(C(=O)c1cc(Cl)c(O)c(Cl)c1)CCO2 | µM | 33
Cc1ccc2c(c1)OCCN2C(=O)c1cc(Cl)c(O)c(Cl)c1 | µM | 18
O=C(c1cc(I)c(O)c(I)c1)N1CCOc2ccccc21 | µM | 2
O=C(c1cc(Cl)c(O)c(Cl)c1)N1CCOc2ccccc21 | µM | 27
O=C(c1cc(Cl)c(O)c(Cl)c1)N1CCOc2ccc(F)cc21 | µM | 31

[I] Cc1cccc2c1OCCN2C(=O)c1cc(Cl)c(O)c(Cl)c1
[II] CCNS(=O)(=O)c1ccc2c(c1)N(C(=O)c1cc(Cl)c(O)c(Cl)c1)CCO2
[III] O=C(c1cc(Cl)c(O)c(Cl)c1)N1CCOc2c(O)cccc21
Q: Sort the compounds on IC50; start with the lowest figure. Return the labels ranked in the requested order, please.
Result: I, II, III

----------
These compounds were tested on UniProt:P11712; pIC50 is the recorded read-out.
pIC50: −log10 of the molar value.

Some solved cases for reference:
COMPOUND | pIC50
O=C(c1ccc(O)c([N+](=O)[O-])c1)N1CCOc2ccccc21 | < 4.30
O=C(c1cc([N+](=O)[O-])c(O)c([N+](=O)[O-])c1)N1CCOc2ccccc21 | < 4.30

Q: Could you please provide reported pIC50 for CC1COc2ccccc2N1C(=O)c1cc(Cl)c(O)c(Cl)c1 (stereo not drawn) ? Thanks!
Result: < 4.30
